The values you see were collected from ChEMBL document CHEMBL2396638.

test: Drug uptake in Wistar rat brain at 100 mg/kg, po after 3 hrs; format: ADME, organism-based; design: dose 100 mg/kg, route oral; conditions: read-out: Drug uptake
Parameter: concentration at 3 h (nM)
Give just the number in nM; leave the unit off.

Known concentration at 3 h results, listed for orientation:
| Substance smiles | concentration at 3 h, nM |
| --- | --- |
| CCc1nc(Cl)c2n1CCN([C@@H](C(=O)NC)c1ccccc1)[C@H]2CCc1cccc(C(F)(F)F)c1F | 136 |
| CNC(=O)[C@@H](c1ccccc1)N1CCn2c(C3CC3)nc(Cl)c2[C@@H]1CCc1ccc(C(F)(F)F)cc1F | 338 |

For the compound shown here, CCc1nc(Cl)c2n1CCN([C@@H](C(=O)NC)c1ccccc1)[C@H]2CCc1ccc(C(F)(F)F)c(Cl)c1 , give the reported concentration at 3 h.
128

For the compound shown here, CNC(=O)[C@@H](c1ccccc1)N1CCn2c(C3CC3)nc(Cl)c2[C@@H]1CCc1ccc(C(F)(F)F)c(F)c1 , give the reported concentration at 3 h.
450

For the compound shown here, CCc1nc(Cl)c2n1CCN([C@@H](C(=O)NC)c1ccccc1)[C@H]2CCc1ccc(C(F)(F)F)cc1F , give the reported concentration at 3 h.
363

For the compound shown here, CCc1nc(Cl)c2n1CCN([C@@H](C(=O)NC)c1ccccc1)[C@H]2CCc1ccc(F)c(F)c1F , give the reported concentration at 3 h.
18

For the compound shown here, CCc1nc(Cl)c2n1CCN([C@@H](C(=O)NC)c1ccccc1)[C@H]2CCc1ccc(C(F)(F)F)c(F)c1F , give the reported concentration at 3 h.
695

For the compound shown here, CCc1nc(Cl)c2n1CCN([C@@H](C(=O)NC)c1ccccc1)[C@H]2CCc1ccc(C(F)(F)F)c(F)c1 , give the reported concentration at 3 h.
1220
